Exercise: for every item that follows, state its recorded IC50.
- STUDY TARGET: Tyrosinase (Agaricus bisporus)
- TEST DESCRIPTION: Tyrosinase inhibition assays were performed in a 96-well microplate format using SpectraMax 340 (Molecular Devices, CA, USA) microplate reader according to method developed earlier.
- CONDITIONS USED: pH 6.8
Numbers only, in µM.

Example entries and their recorded answers appear below.
> print(dat)
                               input.smiles                    study.target  result.number
1            Cc1ccc(CN2CCC(N3CCCCC3)CC2)cc1  Tyrosinase (Agaricus bisporus)           1.72
2  O=[N+]([O-])c1ccc(S(=O)(=O)N2CCC(N3CCCCC3)CC2)cc1  Tyrosinase (Agaricus bisporus)           8.76
3                  CC(=O)N1CCC(N2CCCCC2)CC1  Tyrosinase (Agaricus bisporus)           29.9

// next item, IC50 requested
`C1CCN(C2CCNCC2)CC1` tested on Tyrosinase (Agaricus bisporus) gave IC50: 111
